- study.target: Casein kinase II (Homo sapiens, UniProt P19784+P67870+P68400)
- experimental.protocol: Competitive inhibition of human CK2 assessed as competitive with respect to ATP
experimental.endpoint: Ki (nM)

>  <compound>
CCOC(=O)C1=C(C)N=c2s/c(=C\c3ccc(O)c(O)c3)c(=O)n2C1c1ccc(Cl)cc1 (stereo unspecified)

>  <experimental.endpoint>
Ki

>  <val>
780

$$$$

###

- study.target: Casein kinase II (Homo sapiens, UniProt P19784+P67870+P68400)
- experimental.protocol: Inhibition of human CK2 assessed as residual activity by KinaseProfiler assay
pIC50: −log10 of the molar value.
experimental.endpoint: pIC50

>  <compound>
CCOC(=O)C1=C(C)N=c2s/c(=C\c3cc(O)c(O)c(O)c3)c(=O)n2C1c1ccc(Cl)cc1 (stereo unspecified)

>  <experimental.endpoint>
pIC50

>  <val>
5.06

$$$$
